tested on: corn; test: Test B pre/postemergence corn; type: in vivo, Zea mays; conditions: Preemergence, Rate 62 g/ha; scale of 0 to 10 where 0 is no effect and 10 is complete control
Quantity Measured: Corn plant response rating

1. COC(=O)C=CCn1c(=O)on(C(=O)N(c2ccc(F)cc2)C(C)C)c1=O [Compound 263] = 0
2. CC(C)N(C(=O)n1oc(=O)n(C2CCCC2)c1=O)c1ccc(F)cc1 [Compound 271] = 0
3. CC(C)N(C(=O)n1oc(=O)n(Cc2nnc(Cl)s2)c1=O)c1ccccc1 [Compound 654] = 0
4. COc1cc(C)cc(C)c1-n1c(=O)on(C(=O)N(c2ccc(F)cc2)C(C)C)c1=O [Compound 222] = 0

----------
tested on: wild oat; assay: Test B pre/postemergence wild oat; type: in vivo, Avena fatua; conditions: Preemergence, Rate 125 g/ha
Entries and their Wild oats plant response rating (0 to 10 scale)
Quantity Measured: Wild oats plant response rating (0 to 10 scale)

1. CC(C)N(C(=O)n1oc(=O)n(N2C(C)CCCC2C)c1=O)c1ccc(F)cc1F (centres unmarked) [Compound 383] = 0
2. CC(C)N(C(=O)n1oc(=O)n(C)c1=O)c1ccc(F)cc1F [Compound 368] = 9
3. CC(C)N(C(=O)n1oc(=O)n(Cc2ccccc2-c2ccccc2)c1=O)c1ccc(F)cc1 [Compound 313] = 0
4. COCC(C)n1c(=O)on(C(=O)N(c2ccc(F)cc2F)C(C)C)c1=O (centres unmarked) [Compound 357] = 10
5. CCN(C(=O)n1oc(=O)n(C2CC2)c1=O)C1CCCCC1 [Compound 298] = 0
6. CC(C)N(C(=O)n1oc(=O)n(N2CCOCC2)c1=O)c1ccc(F)cc1 [Compound 385] = 2
7. CC(C)N(C(=O)n1oc(=O)n(C2(C)CC2)c1=O)c1ccc(F)cc1F [Compound 363] = 9
8. CCC(CC)n1c(=O)on(C(=O)N(c2ccc(F)cc2)C(C)C)c1=O [Compound 358] = 5
9. CC(C)N(C(=O)n1oc(=O)n(CC2CCCO2)c1=O)c1ccc(F)cc1 (centres unmarked) [Compound 343] = 4
10. CC1CC1n1c(=O)on(C(=O)N(c2ccccc2)C(C)C)c1=O (centres unmarked) [Compound 370] = 0
11. CC(C)N(C(=O)n1oc(=O)n(C2(C)CC2)c1=O)c1ccc(Cl)cc1 [Compound 361] = 8

----------
test system: soybean; experiment: Test B pre/postemergence soybean; format: in vivo, Glycine max; conditions: Postemergence, Rate 250 g/ha; scale 0 to 10, 0 no effect, 10 complete control
Quantity Measured: Soybean plant response rating

1. CC(C)N(C(=O)n1oc(=O)n(-c2ccccc2OC(F)(F)F)c1=O)c1ccc(F)cc1 = 2
2. Cc1ccc(-n2c(=O)on(C(=O)N(c3ccc(F)cc3F)C(C)C)c2=O)c(C)c1 = 3
3. CCN(C(=O)n1oc(=O)n(-c2ccc(F)cc2F)c1=O)C1CCCCC1 = 4
4. CCN(CC)C(=O)n1oc(=O)n(-c2ccc(F)cc2)c1=O = 1

----------
test system: surinam grass; experiment: Test B pre/postemergence surinam grass; format: in vivo, Brachiaria decumbens; details: Postemergence, Rate 125 g/ha; scale of 0 to 10 where 0 is no effect and 10 is complete control
Quantity Measured: Plant response rating, B. signalgrass

1. CC(C)N(C(=O)n1oc(=O)n(Cc2nnc(Cl)s2)c1=O)c1ccccc1 = 0
2. C=C(Cl)Cn1c(=O)on(C(=O)N(c2ccccc2)C(C)C)c1=O = 10
3. CC(C)N(C(=O)n1oc(=O)n(CC(=O)C2CCC2)c1=O)c1ccc(F)cc1F = 0
4. CC(C)N(C(=O)n1oc(=O)n(C(C)CBr)c1=O)c1ccc(F)cc1F (stereo not shown) = 0
